# system-under-test: human neuronal constitutive NOS (nNOS) (Homo sapiens)
# Sequence (P29475 whole entry): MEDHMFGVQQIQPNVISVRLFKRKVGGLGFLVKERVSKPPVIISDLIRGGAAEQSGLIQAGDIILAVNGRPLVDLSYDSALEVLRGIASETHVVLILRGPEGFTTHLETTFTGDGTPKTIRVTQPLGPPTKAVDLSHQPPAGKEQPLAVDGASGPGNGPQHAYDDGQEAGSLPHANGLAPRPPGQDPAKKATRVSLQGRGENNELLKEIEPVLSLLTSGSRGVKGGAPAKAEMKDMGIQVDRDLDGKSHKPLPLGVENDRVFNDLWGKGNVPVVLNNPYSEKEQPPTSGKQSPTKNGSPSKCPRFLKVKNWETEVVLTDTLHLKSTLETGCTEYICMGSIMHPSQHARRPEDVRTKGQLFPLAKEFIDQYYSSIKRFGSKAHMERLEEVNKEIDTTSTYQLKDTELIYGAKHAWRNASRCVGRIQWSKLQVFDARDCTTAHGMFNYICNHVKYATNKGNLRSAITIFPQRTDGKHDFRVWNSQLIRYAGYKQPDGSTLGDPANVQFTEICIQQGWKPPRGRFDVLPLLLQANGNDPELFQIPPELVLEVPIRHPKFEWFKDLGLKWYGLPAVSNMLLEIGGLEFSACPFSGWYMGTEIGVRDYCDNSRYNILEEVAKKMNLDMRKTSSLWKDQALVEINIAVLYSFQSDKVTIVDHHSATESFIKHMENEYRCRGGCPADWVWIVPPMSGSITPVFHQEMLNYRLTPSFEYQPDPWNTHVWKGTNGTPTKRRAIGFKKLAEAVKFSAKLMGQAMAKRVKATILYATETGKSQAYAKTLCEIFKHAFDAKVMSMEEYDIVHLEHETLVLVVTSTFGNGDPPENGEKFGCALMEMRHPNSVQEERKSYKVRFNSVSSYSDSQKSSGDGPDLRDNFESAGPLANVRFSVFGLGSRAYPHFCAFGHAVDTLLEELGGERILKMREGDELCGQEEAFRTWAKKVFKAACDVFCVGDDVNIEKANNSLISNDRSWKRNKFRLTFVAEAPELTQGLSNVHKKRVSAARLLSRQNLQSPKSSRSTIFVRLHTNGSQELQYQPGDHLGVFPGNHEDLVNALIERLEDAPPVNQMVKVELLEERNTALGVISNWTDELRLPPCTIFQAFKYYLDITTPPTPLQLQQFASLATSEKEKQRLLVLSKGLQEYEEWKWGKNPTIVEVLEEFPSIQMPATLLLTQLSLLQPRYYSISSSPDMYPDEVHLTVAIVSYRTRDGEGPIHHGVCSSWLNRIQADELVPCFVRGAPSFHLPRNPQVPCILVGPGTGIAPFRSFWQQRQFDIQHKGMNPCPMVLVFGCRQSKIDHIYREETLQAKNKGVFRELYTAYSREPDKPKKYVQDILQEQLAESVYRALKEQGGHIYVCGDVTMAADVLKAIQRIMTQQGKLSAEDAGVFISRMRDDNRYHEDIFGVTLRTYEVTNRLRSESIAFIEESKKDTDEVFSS
# assay-comment: nNOS (Human) enzyme assay, radiometric conversion of [3H]L-arginine to [3H]L-citrulline
# Assay type: biochemical
metric-name: IC50

| compound | reported-result |
| --- | --- |
| N=C(Nc1ccc2c(C3CN4CCC3CC4)c[nH]c2c1)c1cccs1 (stereo not shown) | 1130 nM |

---

IC50 for assorted molecules
# system-under-test: human endothelial constitutive NOS (eNOS) (Homo sapiens, UniProt P29474)
# assay-comment: eNOS (Human) enzyme assay, radiometric conversion of [3H]L-arginine to [3H]L-citrulline
# Assay type: biochemical
# experimental-setup: recombinant human enzyme, 37° C., 45 min; read-out: Human eNOS
metric-name: IC50 (µM)

| molecule | system-under-test | reported-result |
| --- | --- | --- |
| CN1CCC(c2c[nH]c3cc(NC(=N)c4cccs4)ccc23)CC1 | human endothelial constitutive NOS (eNOS) (Homo sapiens, UniProt P29474) | 17 |
| CNC1CCC(c2c[nH]c3cc(NC(=N)c4cccs4)ccc23)CC1 (stereo not drawn) | human endothelial constitutive NOS (eNOS) (Homo sapiens, UniProt P29474) | 9.47 |
| CN1CCCC1CCn1c(Cc2ccccc2)cc2cc(NC(=N)c3cccs3)ccc21 (stereo not drawn) | human endothelial constitutive NOS (eNOS) (Homo sapiens, UniProt P29474) | 7.9 |
| CN1CCCC1CCn1ccc2cc(NC(=N)c3cccs3)ccc21 (stereo not drawn) [Compound 56] | human endothelial constitutive NOS (eNOS) (Homo sapiens, UniProt P29474) | 4.49 |
| N=C(Nc1ccc2c(ccn2CCCN2CCOCC2)c1)c1cccs1 | human endothelial constitutive NOS (eNOS) (Homo sapiens, UniProt P29474) | 6 |
| CCNC1CCC(c2c[nH]c3cc(NC(=N)c4cccs4)ccc23)CC1 (stereo not drawn) | human endothelial constitutive NOS (eNOS) (Homo sapiens, UniProt P29474) | 14.9 |
| N=C(Nc1ccc2c(ccn2CCCNC2CC2)c1)c1cccs1 | human endothelial constitutive NOS (eNOS) (Homo sapiens, UniProt P29474) | 8.72 |
| Cc1cc2cc(NC(=N)c3cccs3)ccc2n1CCN(C)C | human endothelial constitutive NOS (eNOS) (Homo sapiens, UniProt P29474) | 3.18 |
| CN1CCC(c2c[nH]c3cc(NC(=N)c4cccs4)ccc23)C1 (stereo not drawn) | human endothelial constitutive NOS (eNOS) (Homo sapiens, UniProt P29474) | 7.09 |

// data source = patent US7989447B2
